assay_system: T1, human GIP receptor (human, UniProt P48546 22-466)
T1 sequence (looked up): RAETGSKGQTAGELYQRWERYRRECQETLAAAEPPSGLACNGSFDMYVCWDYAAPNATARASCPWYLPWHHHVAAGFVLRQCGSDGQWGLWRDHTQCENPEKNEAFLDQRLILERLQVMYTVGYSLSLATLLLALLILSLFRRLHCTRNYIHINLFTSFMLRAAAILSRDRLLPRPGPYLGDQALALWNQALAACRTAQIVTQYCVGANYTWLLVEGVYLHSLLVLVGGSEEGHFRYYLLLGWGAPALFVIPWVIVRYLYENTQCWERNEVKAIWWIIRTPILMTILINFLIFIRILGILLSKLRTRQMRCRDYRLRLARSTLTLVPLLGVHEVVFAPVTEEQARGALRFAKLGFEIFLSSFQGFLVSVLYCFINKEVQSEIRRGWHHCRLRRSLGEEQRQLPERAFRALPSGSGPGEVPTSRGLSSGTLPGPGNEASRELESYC
test: cell-based or functional assay
Starred links: 1 amine or outer side, 2 acyl side, 3 side chain; linkers in the order of their positions; H or OH if unused. Non-standard residues stand in square brackets, D forms with d. Groups on a side chain read outwards from the residue. No end group written: not given here. *: point of attachment. C18 diacid = O=C(O)CCCCCCCCCCCCCCCCC(=O)*; γGlu = O=C(O)[C@H](CCC(=O)[*:2])N[*:1]; AEEA = NCCOCCOCC(=O)O; Aib = CC(C)(N)C(=O)O
// reported EC50 hGIPR 100% hP (CreLuc) per item
Give your result in nM as a bare value.

>  <binder>
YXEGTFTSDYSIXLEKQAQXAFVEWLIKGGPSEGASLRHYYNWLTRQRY (Aib at 2, 13, 20; K28 side chain acylated with C18DA-gGlu-Glu-gGlu-gGlu-gGlu-gGlu-eLys (so in the source); C-terminal amide (NH2)) [Compound 293]

>  <EC50 hGIPR 100% hP (CreLuc) / nM>
1.33

$$$$
>  <binder>
Y[Aib]EGTFTSDYSI[Aib]LEKQAQ[Aib]EFVEWLIK([AEEA-γGlu-γGlu-γGlu-C18 diacid])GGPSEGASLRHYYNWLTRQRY-NH2 (also: TFA salt) [Compound 274]

>  <EC50 hGIPR 100% hP (CreLuc) / nM>
1.78

$$$$
>  <binder>
Y[Aib]EGTFTSDYSI[Aib]LEKQAQ[Aib]AFVEWLIK([AEEA-γGlu-γGlu-γGlu-C18 diacid])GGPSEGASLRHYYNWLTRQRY-NH2 (also: TFA salt) [Compound 300]

>  <EC50 hGIPR 100% hP (CreLuc) / nM>
1.81

$$$$
>  <binder>
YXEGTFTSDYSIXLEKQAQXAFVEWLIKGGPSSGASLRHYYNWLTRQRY (Aib at 2, 13, 20; K28 side chain acylated with C18DA-gGlu-gGlu-gGlu-gGlu-gGlu-AHX; C-terminal amide (NH2)) [Compound 260]

>  <EC50 hGIPR 100% hP (CreLuc) / nM>
2.53

$$$$

Let us move to another entry and its EC50 hGIPR 100% hP (CreLuc).
Input line: Quick one: EC50 hGIPR 100% hP (CreLuc) of Y[Aib]EGTFTSDYSI[Aib]LEKQAQ[Aib]EFVEWLIK([γGlu-γGlu-γGlu-γGlu-C18 diacid])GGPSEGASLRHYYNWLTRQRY-NH2 (also: TFA salt) [Compound 276] ?
Output line: 1.82

These measurements were taken from patent US20240247080A1.
